B1: POU domain, class 5, transcription factor 1, residues 134 to 212; numbered along this chain, Q01860 (parent)
chain: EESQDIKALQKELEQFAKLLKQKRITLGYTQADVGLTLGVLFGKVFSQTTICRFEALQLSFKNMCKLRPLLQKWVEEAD

variants of: B1; experiment: abundance fitness (aPCA) (normalised: wild type 0, dead -1); higher = more abundant; growth selection in yeast, the domain comes from the species named; settings: Homo sapiens
I would appreciate it if you labelled entries Satisfied when abundance fitness is -0.2 or higher, otherwise Not satisfied.

- biosequence: "EESQDIKALQKELEQFAKLLKQKRITLGYTQADVGMTLGVLFGKVFSQTTICRFEALQLSFKNMCKLRPLLQKWVEEAD [L36M]"
  group.label: "Satisfied"
- biosequence: "EESQDIKSLQKELEQFAKLLKQKRITLGYTQADVGLTLGVLFGKVFSQTTICRFEALQLSFKNMCKLRPLLQKWVEEAD [A8S]"
  group.label: "Satisfied"
- biosequence: "EESQDIKALQKELEQFAKLLKQKRITLGYTQADVGLTLGVLFGKVFSQTTICRFEALQLSFKNVCKLRPLLQKWVEEAD [M64V]"
  group.label: "Not satisfied"
- biosequence: "EESQDIKALQKELEQFAKLLKQKRITLGYTQADVGLTLGVLFGKQFSQTTICRFEALQLSFKNMCKLRPLLQKWVEEAD [V45Q]"
  group.label: "Satisfied"
- biosequence: "EESQDIKALQKELEQFAELLKQKRITLGYTQADVGLTLGVLFGKVFSQTTICRFEALQLSFKNMCKLRPLLQKWVEEAD [K18E]"
  group.label: "Not satisfied"

Would you say EESQDIKALQKELEQFAKLLKQKRITLGYTQADVGLTLGVLFGKVFSQTTICRFRALQLSFKNMCKLRPLLQKWVEEAD [E55R] shows abundance fitness at minimum -0.2?
Not satisfied

Cool, now EESQDIKALQVELEQFAKLLKQKRITLGYTQADVGLTLGVLFGKVFSQTTICRFEALQLSFKNMCKLRPLLQKWVEEAD [K11V]
Not satisfied

Cool, now EESQDIKALQKELEQFAKLLKQKRITLGYTPADVGLTLGVLFGKVFSQTTICRFEALQLSFKNMCKLRPLLQKWVEEAD [Q31P]
Satisfied

Cool, now EESQDIKALQKELEQFAKLLKQKRITLGYTQADVGLTLGVLCGKVFSQTTICRFEALQLSFKNMCKLRPLLQKWVEEAD [F42C]
Satisfied

Cool, now EESQDIKALQKELEQFAKLLKQKRITLGYTQADVGLTLGVLFGKVFSQTTICRFEALQLSFKNMCKLRPLLQKWVVEAD [E76V]
Not satisfied

Cool, now EESQDIKALQKELEQFAKLLKQKRITLGYTQADVGLTLGVLFGKVFSQTTICRFEALQLSFKNMCKTRPLLQKWVEEAD [L67T]
Not satisfied

Cool, now EESQDIKALQKEVEQFAKLLKQKRITLGYTQADVGLTLGVLFGKVFSQTTICRFEALQLSFKNMCKLRPLLQKWVEEAD [L13V]
Not satisfied

Cool, now EESQDIKALQKELEQFAKLLKQKRITLGYTQADVGLTLGVLFGKVFSQTTICRFEALQLSFKNMCKLRPLHQKWVEEAD [L71H]
Not satisfied

Cool, now EEVQDIKALQKELEQFAKLLKQKRITLGYTQADVGLTLGVLFGKVFSQTTICRFEALQLSFKNMCKLRPLLQKWVEEAD [S3V]
Satisfied

Cool, now EESQNIKALQKELEQFAKLLKQKRITLGYTQADVGLTLGVLFGKVFSQTTICRFEALQLSFKNMCKLRPLLQKWVEEAD [D5N]
Satisfied

Cool, now EESQDIKALQKMLEQFAKLLKQKRITLGYTQADVGLTLGVLFGKVFSQTTICRFEALQLSFKNMCKLRPLLQKWVEEAD [E12M]
Not satisfied

Cool, now EESQDIKALQKELEQFAKLLKQKRITLGYTQADVGLDLGVLFGKVFSQTTICRFEALQLSFKNMCKLRPLLQKWVEEAD [T37D]
Satisfied

Cool, now EESQDIKALQKELEQFAKLLKQKRITLGYTQADVGLTLGVLFGKVFSQTTICRFEALQLSFKNMCKLRPCLQKWVEEAD [L70C]
Satisfied

Cool, now EESQDIKALQMELEQFAKLLKQKRITLGYTQADVGLTLGVLFGKVFSQTTICRFEALQLSFKNMCKLRPLLQKWVEEAD [K11M]
Satisfied
